test system: Escherichia coli TOP10; assay: shrunken log2 fold change of peptide-encoding DNA abundance (4.5 h post-induction vs induction); higher = less antimicrobial activity (less host growth inhibition); conditions: time post-induction: 4.5 h; library: site-saturation at positions 5, 18, 19, 20;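 also: peptides expressed intracellularly from a pBAD plasmid library in pooled LB shake-flask culture, induced with 0.3% L-arabinose, DNA abundance read by NGS, three biological replicates, DESeq2 with apeglm shrinkage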
Label TRUE when shrunken log2 fold change is at or above 0.05; anything below gets FALSE.

- sequence-entry: "RRIRTRPPRLPRPRPRPEYMPRP"
  assayed-system: "Escherichia coli TOP10"
  category-label: "FALSE"
- sequence-entry: "RRIRHRPPRLPRPRPRPELRPRP"
  assayed-system: "Escherichia coli TOP10"
  category-label: "FALSE"
- sequence-entry: "RRIRYRPPRLPRPRPRPASYPRP"
  assayed-system: "Escherichia coli TOP10"
  category-label: "FALSE"
- sequence-entry: "RRIRIRPPRLPRPRPRPSGTPRP"
  assayed-system: "Escherichia coli TOP10"
  category-label: "FALSE"
- sequence-entry: "RRIRWRPPRLPRPRPRPNQCPRP"
  assayed-system: "Escherichia coli TOP10"
  category-label: "FALSE"
- sequence-entry: "RRIRCRPPRLPRPRPRPPEIPRP"
  assayed-system: "Escherichia coli TOP10"
  category-label: "TRUE"
- sequence-entry: "RRIRCRPPRLPRPRPRPRKHPRP"
  assayed-system: "Escherichia coli TOP10"
  category-label: "TRUE"
- sequence-entry: "RRIRHRPPRLPRPRPRPLGWPRP"
  assayed-system: "Escherichia coli TOP10"
  category-label: "TRUE"
- sequence-entry: "RRIRDRPPRLPRPRPRPYEMPRP"
  assayed-system: "Escherichia coli TOP10"
  category-label: "FALSE"
- sequence-entry: "RRIRRRPPRLPRPRPRPCCMPRP"
  assayed-system: "Escherichia coli TOP10"
  category-label: "FALSE"
- sequence-entry: "RRIRNRPPRLPRPRPRPRWTPRP"
  assayed-system: "Escherichia coli TOP10"
  category-label: "FALSE"
- sequence-entry: "RRIRKRPPRLPRPRPRPERTPRP"
  assayed-system: "Escherichia coli TOP10"
  category-label: "TRUE"
- sequence-entry: "RRIRGRPPRLPRPRPRPYWYPRP"
  assayed-system: "Escherichia coli TOP10"
  category-label: "FALSE"
- sequence-entry: "RRIRMRPPRLPRPRPRPIFCPRP"
  assayed-system: "Escherichia coli TOP10"
  category-label: "FALSE"
- sequence-entry: "RRIRARPPRLPRPRPRPMIQPRP"
  assayed-system: "Escherichia coli TOP10"
  category-label: "TRUE"
- sequence-entry: "RRIRGRPPRLPRPRPRPRWGPRP"
  assayed-system: "Escherichia coli TOP10"
  category-label: "TRUE"
- sequence-entry: "RRIRHRPPRLPRPRPRPHQWPRP"
  assayed-system: "Escherichia coli TOP10"
  category-label: "FALSE"
- sequence-entry: "RRIRHRPPRLPRPRPRPMCCPRP"
  assayed-system: "Escherichia coli TOP10"
  category-label: "TRUE"
- sequence-entry: "RRIRSRPPRLPRPRPRPKDAPRP"
  assayed-system: "Escherichia coli TOP10"
  category-label: "TRUE"
- sequence-entry: "RRIRNRPPRLPRPRPRPHDMPRP"
  assayed-system: "Escherichia coli TOP10"
  category-label: "FALSE"
- sequence-entry: "RRIRLRPPRLPRPRPRPDHNPRP"
  assayed-system: "Escherichia coli TOP10"
  category-label: "FALSE"
- sequence-entry: "RRIRHRPPRLPRPRPRPICCPRP"
  assayed-system: "Escherichia coli TOP10"
  category-label: "TRUE"
- sequence-entry: "RRIRMRPPRLPRPRPRPIKYPRP"
  assayed-system: "Escherichia coli TOP10"
  category-label: "TRUE"
- sequence-entry: "RRIRHRPPRLPRPRPRPINKPRP"
  assayed-system: "Escherichia coli TOP10"
  category-label: "FALSE"
- sequence-entry: "RRIRWRPPRLPRPRPRPYEDPRP"
  assayed-system: "Escherichia coli TOP10"
  category-label: "FALSE"
- sequence-entry: "RRIRSRPPRLPRPRPRPRNSPRP"
  assayed-system: "Escherichia coli TOP10"
  category-label: "FALSE"
- sequence-entry: "RRIRERPPRLPRPRPRPANKPRP"
  assayed-system: "Escherichia coli TOP10"
  category-label: "FALSE"
- sequence-entry: "RRIRRRPPRLPRPRPRPMPKPRP"
  assayed-system: "Escherichia coli TOP10"
  category-label: "TRUE"
- sequence-entry: "RRIRHRPPRLPRPRPRPTPFPRP"
  assayed-system: "Escherichia coli TOP10"
  category-label: "TRUE"
- sequence-entry: "RRIRWRPPRLPRPRPRPCGIPRP"
  assayed-system: "Escherichia coli TOP10"
  category-label: "FALSE"
- sequence-entry: "RRIRHRPPRLPRPRPRPQYAPRP"
  assayed-system: "Escherichia coli TOP10"
  category-label: "FALSE"
- sequence-entry: "RRIRHRPPRLPRPRPRPWCDPRP"
  assayed-system: "Escherichia coli TOP10"
  category-label: "FALSE"
- sequence-entry: "RRIRFRPPRLPRPRPRPKEMPRP"
  assayed-system: "Escherichia coli TOP10"
  category-label: "FALSE"
- sequence-entry: "RRIRPRPPRLPRPRPRPDDWPRP"
  assayed-system: "Escherichia coli TOP10"
  category-label: "TRUE"
- sequence-entry: "RRIRLRPPRLPRPRPRPQYSPRP"
  assayed-system: "Escherichia coli TOP10"
  category-label: "FALSE"
- sequence-entry: "RRIRDRPPRLPRPRPRPHSRPRP"
  assayed-system: "Escherichia coli TOP10"
  category-label: "FALSE"
- sequence-entry: "RRIRLRPPRLPRPRPRPHELPRP"
  assayed-system: "Escherichia coli TOP10"
  category-label: "TRUE"
- sequence-entry: "RRIRQRPPRLPRPRPRPHGEPRP"
  assayed-system: "Escherichia coli TOP10"
  category-label: "TRUE"
- sequence-entry: "RRIRCRPPRLPRPRPRPHVNPRP"
  assayed-system: "Escherichia coli TOP10"
  category-label: "FALSE"
- sequence-entry: "RRIRFRPPRLPRPRPRPGEWPRP"
  assayed-system: "Escherichia coli TOP10"
  category-label: "FALSE"
- sequence-entry: "RRIRLRPPRLPRPRPRPFARPRP"
  assayed-system: "Escherichia coli TOP10"
  category-label: "FALSE"
- sequence-entry: "RRIRERPPRLPRPRPRPTVCPRP"
  assayed-system: "Escherichia coli TOP10"
  category-label: "TRUE"
- sequence-entry: "RRIRERPPRLPRPRPRPNGSPRP"
  assayed-system: "Escherichia coli TOP10"
  category-label: "FALSE"
- sequence-entry: "RRIRTRPPRLPRPRPRPDNGPRP"
  assayed-system: "Escherichia coli TOP10"
  category-label: "FALSE"
- sequence-entry: "RRIRWRPPRLPRPRPRPYPLPRP"
  assayed-system: "Escherichia coli TOP10"
  category-label: "FALSE"
- sequence-entry: "RRIRCRPPRLPRPRPRPLAIPRP"
  assayed-system: "Escherichia coli TOP10"
  category-label: "FALSE"
- sequence-entry: "RRIRERPPRLPRPRPRPKEKPRP"
  assayed-system: "Escherichia coli TOP10"
  category-label: "TRUE"
- sequence-entry: "RRIRWRPPRLPRPRPRPGSEPRP"
  assayed-system: "Escherichia coli TOP10"
  category-label: "TRUE"
- sequence-entry: "RRIRGRPPRLPRPRPRPHCWPRP"
  assayed-system: "Escherichia coli TOP10"
  category-label: "TRUE"
- sequence-entry: "RRIRKRPPRLPRPRPRPGYGPRP"
  assayed-system: "Escherichia coli TOP10"
  category-label: "TRUE"
- sequence-entry: "RRIRWRPPRLPRPRPRPNDNPRP"
  assayed-system: "Escherichia coli TOP10"
  category-label: "FALSE"
- sequence-entry: "RRIRWRPPRLPRPRPRPQADPRP"
  assayed-system: "Escherichia coli TOP10"
  category-label: "FALSE"
- sequence-entry: "RRIRTRPPRLPRPRPRPPFMPRP"
  assayed-system: "Escherichia coli TOP10"
  category-label: "FALSE"
- sequence-entry: "RRIRPRPPRLPRPRPRPWYFPRP"
  assayed-system: "Escherichia coli TOP10"
  category-label: "FALSE"
- sequence-entry: "RRIRGRPPRLPRPRPRPGLLPRP"
  assayed-system: "Escherichia coli TOP10"
  category-label: "TRUE"
- sequence-entry: "RRIRERPPRLPRPRPRPWHKPRP"
  assayed-system: "Escherichia coli TOP10"
  category-label: "FALSE"
- sequence-entry: "RRIRYRPPRLPRPRPRPCCQPRP"
  assayed-system: "Escherichia coli TOP10"
  category-label: "FALSE"
- sequence-entry: "RRIRQRPPRLPRPRPRPLDNPRP"
  assayed-system: "Escherichia coli TOP10"
  category-label: "FALSE"
